meta.source: patent US20160053014A1

Consider the following binders; for each one, report its pEC50.
# test_system: T1, human CXCR5 (human, UniProt P32302 1-372)
# T1 construct: whole, on cells; also called hu-CHO; CHO-CXCR5 cells
# T1 sequence (looked up): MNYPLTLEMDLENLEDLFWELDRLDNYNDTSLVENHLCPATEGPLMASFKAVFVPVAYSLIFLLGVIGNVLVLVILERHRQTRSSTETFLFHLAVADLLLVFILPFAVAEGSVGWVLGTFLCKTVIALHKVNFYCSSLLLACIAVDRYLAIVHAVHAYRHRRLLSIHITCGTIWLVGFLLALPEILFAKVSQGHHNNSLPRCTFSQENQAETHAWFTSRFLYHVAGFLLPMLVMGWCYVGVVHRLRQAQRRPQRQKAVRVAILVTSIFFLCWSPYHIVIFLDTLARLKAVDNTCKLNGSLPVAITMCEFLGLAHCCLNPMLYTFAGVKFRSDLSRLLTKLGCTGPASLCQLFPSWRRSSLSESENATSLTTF
# assay_text: flow cytometry on CHO-CXCR5 cells, IgG titration
Answers are plain numbers, as −log10 of the molar value.

Please review the entries below; each comes with its answer.
binder="11A7 (antibody, human IgG1, V domains shown, 'Antibody 11A7 is a fully human IgG1') VH: EVQLVESGGGLVQPGGSLRLSCAASGFTVSSNYMSWVRQAPGKGLEWVSVIYSGGSTYYADSVKGRFTISRHNSKNTLYLQMNSLRAEDTAVYYCARGYVVWGQGTLVTVSS VL: QPVLTQPPSVSKDLRQTATLTCTGNSNNVGNQGATWLQQHQGHPPKLLSYKNNNRPSGISERFSASRSGNTASLTITGLQPEDEADYYCSAWDSSLSAWVFGGGTQLTVL" attribute_measured=pEC50 readout_number=9.05
binder="16E3 (antibody, V domains shown, tested as human IgG) VH: QVQLVESGGGVVQPGRSLRLSCAASGFTFSSNGMHWVRQAPGKGLEWVAAISYNGRNQYYADSLKGRFTISRDNSKNSLYLQMNSLRAEDTAVYYCATPAATLDYWGQGTLVTVSS VL: QSVLTQPASVSGSPGQSITISCTGTSSDVGGYNYVSWYQHHPGKAPKLMIYDVTYRPSGVSNRFSGSKSGNTASLTISGLQAEDEADYYCSSYTSSSTLVFGTGTKVTVL" attribute_measured=pEC50 readout_number=6.60

Okay, now this binder:
binder 16F9 (antibody, V domains shown, tested as human IgG) VH: EVQLVESGGEVKKPGASVKLSCKSSGYTFTSYYMHWVRQAPGQGLEWMGIINPSGGSTSSAQKFQGRVTMTRDTSTRTVYMELSSLRSEDTAVYYCARGAPNWNYARTLFDYWGQGTLVTVSS VL: SYELTQPRSVSGSPGQSVTISCTGTSSDVGGYNSVSWYQQHPGKAPKLMIYDVSKRPSGVPDRFSGSKSGNTASLTISGLQAEDEADYYCSSYSSSTTHVVFGGGTKLTVL , pEC50 observed: 9.15
